The reported measurements were obtained from the supplement of paper PMC9170038.

Below is a list of entries, each paired with its recorded apparent KD of K4 kissing-loop reporter value.
# Test system: K4 kissing-loop RNA reporter;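 note: bound reporter read as fluorescence of individual clusters on recovered sequencing chips by microscopy, with normalized cluster intensities fitted with a binding model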
# test_method_notes: apparent KD of K4 kissing-loop reporter; higher = weaker reporter binding
# condition_info: Eterna round: R107; input ligand: tryptophan 2.4 mM
All answers are understood in nM, so give the number only.

# count of solved cases: 4
construct_sequence	apparent KD of K4 kissing-loop reporter / nM
ACAUUAGCGAGUGAUGUUCGCUAAGACGAAGGAGCGCUCGCGAGAGCAGGUAGGUCGCGUCUAGUGUCACUGUACUAAAUAGUGA [Arg A SS t12]	169
AUUAUAAAGACGGCCGCCACUGAGAGUAGUGAUGUUACUCUUUUCCUUUAGAUAUUAUAUUUUAUCAGGACCGGGUUUUUUGAUU [JR_Nu_ExcTryptoB_Sub025]	91.9
UGCUUUAUCAGAAGGAGCGGGUUGUUCAUAAUAAUAAUCAGUGAUGUUGAUAUAUGAUGAUUCCAGGUAGGUCGCUGAUAUAGCU [KL-XARG-B2]	238
GGAUCCACCAGUGAUGUUGGAGAAAACUCCAAGGAUAUGACGAAAGUCAGAAGGUGGUAGACUGGUCAAAGUCCGGUCGGAUCCA [FmnA10 U66]	262

input: Notebook entry, K4 kissing-loop RNA reporter assay: apparent KD of K4 kissing-loop reporter of UUUAUGAGGUCGGCCGCCACUGGAUUUAUGUUUGUUUCGUCUGGAUCAAAGUGAUGUUUUGAGUCCAGGACCGGGACAUUUGUUA [whbob_Ex_Tryp_B_w40] = ?
output: 94
